# IC50 annotations
# targetOrTestSystem: Cathepsin D (Cat D) (Homo sapiens, UniProt P07339)
# Construct: Recombinant Cat D was expressed in CHO cells; made in house; host or cells: CHO cells
# Sequence (P07339 65-412, species assumed): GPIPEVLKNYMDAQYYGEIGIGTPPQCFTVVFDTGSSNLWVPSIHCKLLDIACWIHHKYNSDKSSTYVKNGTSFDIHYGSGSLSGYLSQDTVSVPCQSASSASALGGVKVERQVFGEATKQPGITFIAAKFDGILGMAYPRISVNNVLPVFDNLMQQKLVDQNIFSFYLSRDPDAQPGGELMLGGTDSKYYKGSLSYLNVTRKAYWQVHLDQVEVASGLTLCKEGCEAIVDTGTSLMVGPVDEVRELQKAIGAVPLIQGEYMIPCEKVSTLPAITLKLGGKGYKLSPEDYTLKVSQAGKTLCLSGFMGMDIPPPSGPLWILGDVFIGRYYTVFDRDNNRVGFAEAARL
# protocolDetails: In vitro enzymatic Cathepsin D (Cat D) FRET assay
# Format: biochemical
# measurementContext: read-out: CatD IC50

compound: COc1cnc2c(Nc3ccc(F)c([C@]4(C)CS(=O)(=O)C5(CC5)C(N)=N4)c3)nccc2c1
unitText: µM
limitQualifier: =
IC50: 160
--
compound: Cc1cc(Cl)cnc1C(=O)Nc1ccc(F)c([C@@]2(C)N=C(N)C(C)(C)S(=O)(=O)C23CC3)c1
unitText: µM
limitQualifier: =
IC50: 20
--
compound: C[C@@]1(c2cc(Nc3nccc4cc(Cl)cnc34)ccc2F)CS(=O)(=O)CC(N)=N1
unitText: µM
limitQualifier: =
IC50: 134
--
compound: COc1cnc2c(Nc3ccc(F)c([C@@]4(C)N=C(N)C5(CCC5)S(=O)(=O)C4F)c3)nccc2n1 (stereo partly drawn)
unitText: µM
limitQualifier: =
IC50: 303
--
compound: Cc1cc(Cl)cnc1C(=O)Nc1cnc(F)c([C@]2(C)CS(=O)(=O)C3(CC3)C(N)=N2)c1
unitText: µM
limitQualifier: =
IC50: 65.7
--
compound: CC1(C)C(N)=N[C@](CF)(c2cc(Nc3ncc(F)c4cc(O)cnc34)ccc2F)CS1(=O)=O
unitText: µM
limitQualifier: =
IC50: 111
--
compound: CC1(C)C(N)=N[C@](CF)(c2cc(Nc3ncc(F)c4cc(OCC5CCC5)cnc34)ccc2F)CS1(=O)=O
unitText: µM
limitQualifier: =
IC50: 32.3
--
compound: CC1(C)C(N)=N[C@](C)(c2cc(NC(=O)c3cnc(OCC(F)(F)F)cn3)cnc2F)CS1(=O)=O
unitText: µM
limitQualifier: =
IC50: 2780
--
compound: CC1(C)C(N)=N[C@](C)(c2cc(Nc3nccc4cc(OCC(F)F)cnc34)ccc2F)CS1(=O)=O
unitText: µM
limitQualifier: =
IC50: 447
--
compound: COc1cnc(C(=O)Nc2ccc(F)c([C@@]3(C)N=C(N)C(C)(C)S(=O)(=O)C3F)c2)c(C)c1 (stereo partly drawn)
unitText: µM
limitQualifier: =
IC50: 233
--
compound: CC1(C)C(N)=N[C@](C)(c2cc(NC(=O)c3cnc(OCC(F)F)cn3)ccc2F)CS1(=O)=O
unitText: µM
limitQualifier: =
IC50: 504
--
compound: COc1cnc2c(Nc3ccc(F)c([C@]4(C)CS(=O)(=O)C(C)(C)C(N)=N4)c3)ncc(F)c2c1
unitText: µM
limitQualifier: =
IC50: 73.3
--
compound: CC1(C)C(N)=N[C@](C)(c2cc(Nc3csc4cc(C#N)cnc34)ccc2F)CS1(=O)=O
unitText: µM
limitQualifier: =
IC50: 27.3
--
compound: CC1(C)C(N)=N[C@](C)(c2cc(Br)c[nH]c2=O)CS1(=O)=O
unitText: µM
limitQualifier: >
IC50: 400
--
compound: CC1(C)C(N)=N[C@](CF)(c2cc(NC(=O)c3ncc(C(F)(F)F)cc3Cl)ccc2F)CS1(=O)=O
unitText: µM
limitQualifier: =
IC50: 775

---

# targetOrTestSystem: Cathepsin D (Cat D) (Homo sapiens, UniProt P07339)
# Construct: Recombinant Cat D was expressed in CHO cells; made in house; host or cells: CHO cells
# protocolDetails: In vitro enzymatic Cathepsin D (Cat D) FRET assay
# Format: biochemical
# measurementContext: read-out: CatD IC50

chemicalString: CC1(C)C(N)=N[C@](C)(c2cc(Oc3c(C#N)ccnc3Cl)ccc2F)CS1(=O)=O
targetOrTestSystem: Cathepsin D (Cat D) (Homo sapiens, UniProt P07339)
limitQualifier: =
IC50, µM: 224
--
chemicalString: C[C@]1(F)C(N)=N[C@](C)(c2cc(Nc3nccc4nc(C(F)(F)F)cnc34)ccc2F)CS1(=O)=O
targetOrTestSystem: Cathepsin D (Cat D) (Homo sapiens, UniProt P07339)
limitQualifier: >
IC50, µM: 133
--
chemicalString: CC#CCOc1cnc(C(=O)Nc2cnc(F)c([C@]3(C)CS(=O)(=O)C4(CCC4)C(N)=N3)c2)c(C)c1
targetOrTestSystem: Cathepsin D (Cat D) (Homo sapiens, UniProt P07339)
limitQualifier: =
IC50, µM: 196
--
chemicalString: CC1(C)C(N)=N[C@](CF)(c2cc(NC(=O)c3ccc(OC(F)F)cn3)ccc2F)CS1(=O)=O
targetOrTestSystem: Cathepsin D (Cat D) (Homo sapiens, UniProt P07339)
limitQualifier: =
IC50, µM: 303

---

Here the recorded IC50 is given for each entry.
# System: Aβ40 in conditioned medium of cells stably expressing Amyloid Precursor Protein (APP)
# protocolDetails: In vitro BACE cell-based assay (HEK cell assay), Aβ40 sandwich ELISA
# measurementContext: Homo sapiens, HEK293; Aβ40, 24 h incubation
quantityName: IC50 (nM)

compound: COc1cnc(C(=O)Nc2ccc(F)c([C@]3(C)CS(=O)(=O)C(C)(C)C(N)=N3)c2)cn1
quantityName: IC50
recordedResult: 2.2
--
compound: COc1cnc2c(Nc3ccc(F)c([C@]4(C)CS(=O)(=O)C(C)(C)C(N)=N4)c3)nccc2n1
quantityName: IC50
recordedResult: 5.6
--
compound: CC1(C)C(N)=N[C@](C)(c2cc(Nc3ncc(F)c4cc(Cl)cnc34)ccc2F)CS1(=O)=O
quantityName: IC50
recordedResult: 15.1
--
compound: CC1(C)C(N)=N[C@](C)(c2cc(NC(=O)c3ncc(Cl)cc3F)ccc2F)CS1(=O)=O
quantityName: IC50
recordedResult: 3.7
--
compound: COc1cnc2c(Nc3ccc(F)c([C@]4(C)CS(=O)(=O)C(C)(C)C(N)=N4)c3)cccc2n1
quantityName: IC50
recordedResult: 212
--
compound: CC1(C)C(N)=N[C@](C)(c2cc(Nc3nccc4cc(Cl)cnc34)cc(F)c2F)CS1(=O)=O (single isomer, unassigned) [Example 70]
quantityName: IC50
recordedResult: 5040
--
compound: C[C@@]1(c2cc(Nc3nccc4cc(Cl)cnc34)ccc2F)CS(=O)(=O)CC(N)=N1
quantityName: IC50
recordedResult: 19
--
compound: CC1(C)C(N)=N[C@](C)(c2cc(Oc3ccccn3)ccc2F)CS1(=O)=O
quantityName: IC50
recordedResult: 213
--
compound: CC1(C)C(N)=N[C@](C)(c2cc(Nc3csc4cc(C#N)cnc34)ccc2F)CS1(=O)=O
quantityName: IC50
recordedResult: 1.6
--
compound: CC1(C)C(N)=N[C@](C)(c2cc(Nc3nccc4nc(C(F)(F)F)cnc34)ccc2F)CS1(=O)=O
quantityName: IC50
recordedResult: 34.6
--
compound: CC1(C)C(N)=N[C@](C)(c2cc(NC(=O)c3ccc(C#N)cn3)ccc2F)CS1(=O)=O
quantityName: IC50
recordedResult: 2.7
--
compound: COc1cnc(C(=O)Nc2ccc(F)c([C@]3(C)CS(=O)(=O)C(C)C(N)=N3)c2)cn1 (stereo partly drawn)
quantityName: IC50
recordedResult: 12.5
--
compound: COc1cnc(C(=O)Nc2cc(C3(C)CS(=O)(=O)C(C)(C)C(N)=N3)c(F)cn2)cn1 (stereo not drawn)
quantityName: IC50
recordedResult: 935
--
compound: CC1(C)C(N)=N[C@](C)(c2cc(Nc3ncnc4cc(Cl)cnc34)ccc2F)CS1(=O)=O
quantityName: IC50
recordedResult: 2.3
--
compound: CC1(C)C(N)=N[C@](C)(c2cc(Nc3nccc4cc(Cl)cnc34)ccc2F)CS1(=O)=O
quantityName: IC50
recordedResult: 7.5
--
compound: CC1(c2cc(NC(=O)c3ccc(Cl)cn3)cc(F)c2F)CS(=O)(=O)C(C)(C)C(N)=N1 (stereo not drawn)
quantityName: IC50
recordedResult: 12.2
--
compound: CC1(C)C(N)=N[C@@](C)(c2cc(Nc3noc4cc(Cl)cnc34)ccc2F)CS1(=O)=O
quantityName: IC50
recordedResult: 94.4
--
compound: CC1(C)C(N)=N[C@](C)(c2cc(Nc3nccc4nc(O)cnc34)cc(F)c2F)CS1(=O)=O
quantityName: IC50
recordedResult: 47.4
--
compound: COc1cnc2c(Nc3ccc(F)c([C@]4(C)CS(=O)(=O)C5(CCCC5)C(N)=N4)c3)nccc2c1
quantityName: IC50
recordedResult: 57.5
--
compound: Cc1nc2c(Nc3ccc(F)c([C@]4(C)CS(=O)(=O)CC(N)=N4)c3)nccc2s1
quantityName: IC50
recordedResult: 292
--
compound: Cc1nc(C(=O)Nc2ccc(F)c([C@]3(C)CS(=O)(=O)C(C)(C)C(N)=N3)c2)cs1
quantityName: IC50
recordedResult: 60.9

---

# System: Aβ40 in conditioned medium of cells stably expressing Amyloid Precursor Protein (APP)
# protocolDetails: In vitro BACE cell-based assay (HEK cell assay), Aβ40 sandwich ELISA
# measurementContext: Homo sapiens, HEK293; Aβ40, 24 h incubation
quantityName: IC50 (µM)

molecule: CC1(C)C(N)=N[C@](C)(c2cc(Oc3cc(F)cc(C(F)(F)F)c3)ccc2F)CS1(=O)=O
quantityName: IC50
unitText: µM
limitQualifier: =
recordedResult: 5.04
--
molecule: COc1cnc2c(Nc3ccc(F)c(C4(CF)CS(=O)(=O)C(C)(C)C(N)=N4)c3)nccc2c1 (centres unmarked)
quantityName: IC50
unitText: µM
limitQualifier: =
recordedResult: 0.0317
--
molecule: C[C@@]1(c2cc(NC(=O)c3ccc(Cl)cn3)ccc2F)CS(=O)(=O)CC(N)=N1
quantityName: IC50
unitText: µM
limitQualifier: =
recordedResult: 0.0108
--
molecule: COc1cnc2c(Nc3ccc(F)c([C@]4(C)CS(=O)(=O)C(C)(C)C(N)=N4)c3)ncnc2c1
quantityName: IC50
unitText: µM
limitQualifier: =
recordedResult: 0.003
--
molecule: CCc1cccc(Oc2ccc(F)c([C@]3(C)CS(=O)(=O)C(C)(C)C(N)=N3)c2)c1
quantityName: IC50
unitText: µM
limitQualifier: =
recordedResult: 6.68
--
molecule: CCc1cc(Oc2ccc(F)c([C@]3(C)CS(=O)(=O)C(C)(C)C(N)=N3)c2)ccc1Cl
quantityName: IC50
unitText: µM
limitQualifier: >
recordedResult: 10
--
molecule: CC1(C)C(N)=N[C@](C)(c2cc(NC(=O)c3ccc(Cl)cn3)ccc2F)CS1(=O)=O
quantityName: IC50
unitText: µM
limitQualifier: =
recordedResult: 0.0014
--
molecule: COc1cnc(C(=O)Nc2ccc(F)c([C@]3(C(F)F)CS(=O)(=O)C(C)(C)C(N)=N3)c2)cn1
quantityName: IC50
unitText: µM
limitQualifier: =
recordedResult: 0.765
